- assay-info: Half life in mouse at 2 mg/kg, sc
- Assay type: ADME, organism-based
- Design: dose 2 mg/kg, route subcutaneous
- condition: in vivo
endpoint: half-life (h)
Answer format: numeric, h implied, no suffix.

State the recorded half-life for this entry: COc1ccccc1S(=O)(=O)Nc1ccc2c(c1)CN(C)C(=O)N2 2

###

- assay-info: Half life in rat at 1 mg/kg, iv
- Format: ADME, organism-based
- Set-up: dose 1 mg/kg, route intravenous
- condition: in vivo
endpoint: half-life
Record the result as number plus unit.

State the recorded half-life for this entry: COc1ccccc1S(=O)(=O)Nc1ccc2c(c1)CN(C)C(=O)N2 60 min
